Below, each of the binders is paired with its reported cAMP EC50 value.
Molecular target: T1, human glucose-dependent insulinotropic polypeptide (GIP) receptor (human) (UniProt P48546)
T1 sequence (looked up): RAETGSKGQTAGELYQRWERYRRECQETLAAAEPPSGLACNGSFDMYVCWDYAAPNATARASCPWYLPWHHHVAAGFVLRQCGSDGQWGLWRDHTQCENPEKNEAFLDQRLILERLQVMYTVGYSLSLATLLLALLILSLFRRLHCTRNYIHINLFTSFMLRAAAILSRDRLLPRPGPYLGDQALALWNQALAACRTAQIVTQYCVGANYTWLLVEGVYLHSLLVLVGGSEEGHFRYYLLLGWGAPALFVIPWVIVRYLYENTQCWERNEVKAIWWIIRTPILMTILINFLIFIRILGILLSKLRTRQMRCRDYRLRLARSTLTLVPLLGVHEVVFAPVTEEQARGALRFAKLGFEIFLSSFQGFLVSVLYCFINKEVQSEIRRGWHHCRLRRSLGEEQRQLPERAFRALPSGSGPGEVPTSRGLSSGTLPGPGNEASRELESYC
Test: cell-based or functional assay
API: value field is a number in nM; no unit string.

Here is how some binders turned out for cAMP EC50.
{"Binder": "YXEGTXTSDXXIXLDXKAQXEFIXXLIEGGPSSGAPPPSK (Y-Aib-EGT-αMeF(2F)-TSD-4Pal-Aib-I-αMeL-LD-Orn-K((2-[2-(2-Amino-ethoxy)-ethoxy]-acetyl)2-(γ-Glu)-(10-(4-carboxyphenoxy)decanoyl))AQ-Aib-EFI-(D-Glu)-αMeY-LIEGGPSSGAPPPSK((2-[2-(2-Amino-ethoxy)-ethoxy]-acetyl)2-(γ-Glu)-(10-(4-carboxyphenoxy)decanoyl))-NH2) [Example 245]", "Metric": "cAMP EC50", "Unit Annotation": "nM", "Value": 0.0195}
{"Binder": "YXEGTXTSDYXIXLDXKAQXKFIXXLIEGGPSSGAPPPS (Y-Aib-EGT-αMeF(2F)-TSDY-Aib-I-αMeL-LD-Orn-K((2-[2-(2-Amino-ethoxy)-ethoxy]-acetyl)2-(γ-Glu)-CO-(CH2)12-CO2H)AQ-Aib-K((2-[2-(2-Amino-ethoxy)-ethoxy]-acetyl)2-(γ-Glu)-CO-(CH2)12-CO2H)FI-(D-Glu)-αMeY-LIEGGPSSGAPPPS-NH2) [Example 230]", "Metric": "cAMP EC50", "Unit Annotation": "nM", "Value": 0.0199}
{"Binder": "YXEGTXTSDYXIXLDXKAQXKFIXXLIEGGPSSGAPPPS (Y-Aib-EGT-αMeF(2F)-TSDY-Aib-I-αMeL-LD-Orn-K((2-[2-(2-Amino-ethoxy)-ethoxy]-acetyl)2-(γ-Glu)-(10-(4-carboxyphenoxy)decanoyl))AQ-Aib-K((2-[2-(2-Amino-ethoxy)-ethoxy]-acetyl)2-(γ-Glu)-(10-(4-carboxyphenoxy)decanoyl))FI-(D-Glu)-αMeY-LIEGGPSSGAPPPS-NH2) [Example 236]", "Metric": "cAMP EC50", "Unit Annotation": "nM", "Value": 0.0154}
{"Binder": "YXEGTXTSDYXIXLDXIAQXKFIXXLIEGGPSSGAPPPSK (Y-Aib-EGT-aMeF(2F)-TSDY-Aib-I-aMeL-LD-Orn-IAQ-Aib-K((2-[2-(2-Amino-ethoxy)-ethoxy]-acetyl)2-(γ-Glu)-CO-(CH2)12-CO2H)FI-(D-Glu)-αMeY-LIEGGPSSGAPPPSK((2-[2-(2-Amino-ethoxy)-ethoxy]-acetyl)2-(γ-Glu)-CO-(CH2)12-CO2H)-NH2) [Example 235]", "Metric": "cAMP EC50", "Unit Annotation": "nM", "Value": 0.0168}
{"Binder": "YXEGTXTSDXSIXLDXIAQXEFIXXLIKGGPSSGAPPPSK (Y-Aib-EGT-αMeF(2F)-TSD-4Pal-SI-αMeL-LD-Orn-IAQ-Aib-EFI-(D-Glu)-αMeY-LIK((2-[2-(2-Amino-ethoxy)-ethoxy]-acetyl)3-(γ-Glu)-CO-(CH2)12-CO2H)GGPSSGAPPPSK((2-[2-(2-Amino-ethoxy)-ethoxy]-acetyl)3-(γ-Glu)-CO-(CH2)12-CO2H)-NH2) [Example 229]", "Metric": "cAMP EC50", "Unit Annotation": "nM", "Value": 0.0253}

Q: Fill in: cAMP EC50 of YXEGTXTSDYXIXLDXKAQXEFIXXLIEGGPSSGAPPPSK (Y-Aib-EGT-αMeF(2F)-TSDY-Aib-I-αMeL-LD-Orn-K((2-[2-(2-Amino-ethoxy)-ethoxy]-acetyl)2-(γ-Glu)-CO-(CH2)12-CO2H)AQ-Aib-EFI-(D-Glu)-αMeY-LIEGGPSSGAPPPSK((2-[2-(2-Amino-ethoxy)-ethoxyl-acetyl)2-(γ-Glu)-CO-(CH2)12-CO2H)-NH2) [Example 232] is ___
A: 0.0192
